# testedOn: T1, Bfl-1 (human, UniProt Q16548 1-175)
# T1 construct: human Bfl-1; The c-Myc tag is told for the SPOT arrays; also called c-Myc-tagged receptor; prosurvival protein
# T1 sequence (looked up): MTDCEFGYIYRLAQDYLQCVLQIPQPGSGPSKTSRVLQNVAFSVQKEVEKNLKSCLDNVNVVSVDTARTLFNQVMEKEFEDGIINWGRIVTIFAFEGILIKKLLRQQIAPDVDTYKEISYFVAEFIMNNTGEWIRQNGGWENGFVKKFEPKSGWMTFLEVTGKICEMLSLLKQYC
# measurementNotes: fluorescence polarisation; direct binding: 10 nM FAM-labeled peptide, receptor serially diluted; 25°C; 20 mM NaPO4, 50 mM NaCl, 1 mM EDTA, 0.001% Triton X, pH 7.8; single-site binding model
# recordedConditions: both partners purified
pKd: −log10 of the molar value. FAM = fluorescein group
property: pKd

-- ask Quick one: pKd of {FAM}-IIQMIVELLKRVGDQWEEEQSLA-NH2 [c6orf222 BH3-like peptide] ?
-- reply > 7.52
